Below are pIC50 values recorded for A disintegrin and metalloproteinase with thrombospondin motifs 4 (Homo sapiens).
Give bare numbers, as −log10 of the molar value.

1) CC(C)[C@@H](NS(=O)(=O)c1ccc(-c2ccc(OCc3ccccc3C#N)cc2)cc1)C(=O)O
4.82

Moving on to the next compound.
Task item: Request the reported pIC50 associated with `CC(C)[C@@H](NS(=O)(=O)c1ccc(-c2ccc(OCc3cccc(C(=O)O)c3)cc2)cc1)C(=O)O`
Reply: 4.66
